# credit: paper PMC3817407

# targetOrSystem: ECF26_4464
measurementType: fold repression
Give your answer as a number; write no unit.

input: Please report fold repression for the following binder: AS03_1244 (protein) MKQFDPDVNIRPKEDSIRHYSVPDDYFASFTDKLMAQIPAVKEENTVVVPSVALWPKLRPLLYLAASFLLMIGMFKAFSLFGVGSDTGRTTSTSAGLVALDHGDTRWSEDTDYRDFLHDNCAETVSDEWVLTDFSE
output: 2.21
